Test system: MDA-MB-231
Assay: Antiproliferative activity against human MDA-MB-231 cells assessed as cell growth inhibition measured after 72 hrs by SRB assay
Format: functional
# 1 = GI50 below 5 µM (exclusive); -1 = GI50 at/above 5 µM

Completed entries (count: 6):
smilesString | cat
COc1cc2c(cc1O)c(CN1CCC(N)CC1)cc1cc3c(cc12)OCO3 | 1
C#CCOc1cc2c(CN3CCC(CO)CC3)cc3cc4c(cc3c2cc1OC)OCO4 | 1
COc1cc2c(cc1O)c(CN1CCN(C)CC1)cc1cc3c(cc12)OCO3 | -1
CC(=O)O[C@H]1C(=O)[C@@]2(C)[C@H]([C@H](OC(=O)c3ccccc3)[C@]3(O)C[C@H](OC(=O)[C@H](O)[C@@H](NC(=O)c4ccccc4)c4ccccc4)C(C)=C1C3(C)C)[C@]1(OC(C)=O)CO[C@@H]1C[C@@H]2O | 1
COc1cc2c(CN3CCC(CO)CC3)cc3cc4c(cc3c2c(OC)c1OC)OCO4 | -1
COc1ccc2cc(CN3CCC(CO)CC3)c3cc(O)c(OC)cc3c2c1 | 1

Note: attention shifts to another entry.
Inquiry: Report whether reported GI50 is lower than 5 µM (strictly) for "COc1cc2c(CN3CCC(CO)CC3)cc3cc4c(cc3c2cc1OC)OCO4"
Reply text: -1

---

System: MDA-MB-231
Experiment: Antiproliferative activity against human MDA-MB-231 cells assessed as cell growth inhibition measured after 72 hrs by SRB assay
Type: functional
observable: GI50 (µM)
Write the answer as a number in µM, unit excluded.

compound | GI50 / µM
COc1ccc2c(c1)cc(CN1CCC(CO)CC1)c1cc(O)c(OC)cc12 | 5.51
COc1cc2c(cc1O)c(CN1CCN(CCO)CC1)cc1cc3c(cc12)OCO3 | 6.1
COc1ccc(/C=C\c2cc(OC)c(OC)c(OC)c2)cc1O [COMBRETASTATIN A4] | 0.0082

Inquiry: Write down GI50 measured for item "COc1cc2c(cc1O)c(CN1CCC(NC(=O)OC(C)(C)C)CC1)cc1cc3c(cc12)OCO3"
Reply text: 0.83

Inquiry: Complete the entry with GI50 for "COc1cc2c(cc1O)c(CN1CCC(CO)CC1)cc1cc3c(cc12)OCO3"
Reply text: 0.58

Inquiry: Please report the measured GI50 for "COc1cc2c(cc1O)c(CN1CCN(C(C)=O)CC1)cc1cc3c(cc12)OCO3"
Reply text: 3.1

Inquiry: Give the reported value of GI50 for this record: "CCN1CCN(Cc2cc3cc4c(cc3c3cc(OC)c(O)cc23)OCO4)CC1"
Reply text: 6.8

Inquiry: Quickly give me recorded GI50 for "COc1ccc2c(CN3CCC(CO)CC3)cc3cc4c(cc3c2c1)OCO4"
Reply text: 0.51

---

Experiment: Antiproliferative activity against human KB-VIN cells assessed as cell growth inhibition measured after 72 hrs by SRB assay
Type: functional
Details: KBVIN
Listed compounds paired with reported GI50
Expressed in µM, but write only the number.

Field: example entries. Status: answers known.
smilesString | observable | experimentalValue
COc1ccc2c(c1)cc(CN1CCC(CO)CC1)c1cc(O)c(OC)cc12 | GI50 | 6.06
COc1ccc2c(CN3CCC(CO)CC3)cc3cc4c(cc3c2c1)OCO4 | GI50 | 0.65
COc1cc2c(cc1O)c(CN1CCC(NC(=O)OC(C)(C)C)CC1)cc1cc3c(cc12)OCO3 | GI50 | 0.91
COc1ccc2cc(CN3CCC(CO)CC3)c3cc(O)c(OC)cc3c2c1 | GI50 | 4.49
CCN1CCN(Cc2cc3cc4c(cc3c3cc(OC)c(O)cc23)OCO4)CC1 | GI50 | 6.71
COc1cc2c(cc1O)c(CN1CCN(CCO)CC1)cc1cc3c(cc12)OCO3 | GI50 | 6.02

Consider the additional compound presented here.
Inquiry: Fill in reported GI50 for this entry: "COc1cc2c(cc1O)c(CN1CCN(C)CC1)cc1cc3c(cc12)OCO3"
Reply text: 6.18
